test: Caspase-3/7 induction in CHO-K1 cells by small molecules, qHTS cell viability counter screen (AID 1346979); conditions: CellTiter-Fluor fluorescence, 17 h; series mostly up to 92.4 µM; also: nearly all actives have a fitted effect of over 35% in size
Inconclusive results are not listed. The source made the active and inactive calls. Calls follow the shape of the dose curve; as a rule, active = well fitted cell-killing curve with a large enough effect in the repeat runs; inconclusive = weak or mixed curves, or effect the other way; inactive = no such curve, though single readings can be large or run the other way.
Labels: active, inactive

In [3]: df
Out[3]:
                                    compound  label_value
 0  CC(CNC1CCCCC1)OC(=O)c1ccccc1 (stereo unspecified)     inactive
 1       Cc1cc(NS(=O)(=O)c2ccc(N)cc2)nc(C)n1     inactive
 2  CO[C@@]1(NC(=O)CSCC#N)C(=O)N2C(C(=O)O)=C(CSc3nnnn3C)CS[C@@H]21     inactive
 3                CCCNC(C)(C)COC(=O)c1ccccc1     inactive
 4  CC(Oc1c(Cl)cccc1Cl)C1=NCCN1 (stereo unspecified)     inactive
 5  Cc1nnc(SCC2=C(C(=O)O)N3C(=O)[C@@H](NC(=O)Cn4cnnn4)[C@H]3SC2)s1     inactive
 6  CCCCCOc1ccc(C2SC(=O)NC2=O)cc1OCC (stereo unspecified)     inactive
 7                                   CCCOCCC     inactive
 8  CC(C)C(=O)OCC(C)(C)C(O)C(C)C (stereo unspecified)     inactive
 9             CCN(CC)CCNC(=O)COc1ccc(Cl)cc1     inactive
10                Cc1onc(-c2ccccc2)c1C(=O)Cl     inactive
11                        O=C(O)[C@@H]1CSCN1     inactive
12                Cc1cc(S(=O)(=O)O)c(N)cc1Cl     inactive
13  CCC(=O)O[C@]1(C(=O)SCF)[C@H](C)C[C@H]2[C@@H]3C[C@H](F)C4=CC(=O)C=C[C@]4(C)[C@@]3(F)[C@@H](O)C[C@@]21C     inactive
14  C/C(=N\O)[C@@H](C)NCC(C)(C)CN[C@H](C)/C(C)=N/O     inactive
15                                   CCCCCCC     inactive
16                             NC/C=C/C(=O)O     inactive
17       CN(C)CC[C@@H](c1ccc(Cl)cc1)c1ccccn1     inactive
18          Cc1nc(N)nc(N)c1-c1ccc(Cl)c(Cl)c1     inactive
19         CC(C)(C)c1ccc(OC(=O)c2ccccc2O)cc1     inactive
20                  O=C1CCCCCCCCCCC(=O)OCCO1     inactive
21       Cc1cc2c(s1)Nc1ccccc1N=C2N1CCN(C)CC1       active
22  O=[N+]([O-])c1nccn1CO[C@@H](CO)[C@H](O)CO     inactive
23  O=c1[nH]c(=O)n([C@H]2C[C@H](O)[C@@H](CO)O2)cc1C(F)(F)F     inactive
24  Cc1cn([C@@H]2O[C@H](CO)[C@@H](O)[C@@H]2F)c(=O)[nH]c1=O     inactive
25   CCC(=O)c1ccc2c(c1)N(CCCN(C)C)c1ccccc1S2     inactive

----------
target: Luciferin 4-monooxygenase (Photinus pyralis) (UniProt P08659); test: qHTS assay to identify small molecule inhibitors of firefly luciferase (AID 1224835); also: nearly all actives have a fitted effect of over 25% in size; settings: purified P. pyralis luciferase, luminescence inhibition; series mostly up to 115 µM
Sequence (P08659 whole entry, looked up): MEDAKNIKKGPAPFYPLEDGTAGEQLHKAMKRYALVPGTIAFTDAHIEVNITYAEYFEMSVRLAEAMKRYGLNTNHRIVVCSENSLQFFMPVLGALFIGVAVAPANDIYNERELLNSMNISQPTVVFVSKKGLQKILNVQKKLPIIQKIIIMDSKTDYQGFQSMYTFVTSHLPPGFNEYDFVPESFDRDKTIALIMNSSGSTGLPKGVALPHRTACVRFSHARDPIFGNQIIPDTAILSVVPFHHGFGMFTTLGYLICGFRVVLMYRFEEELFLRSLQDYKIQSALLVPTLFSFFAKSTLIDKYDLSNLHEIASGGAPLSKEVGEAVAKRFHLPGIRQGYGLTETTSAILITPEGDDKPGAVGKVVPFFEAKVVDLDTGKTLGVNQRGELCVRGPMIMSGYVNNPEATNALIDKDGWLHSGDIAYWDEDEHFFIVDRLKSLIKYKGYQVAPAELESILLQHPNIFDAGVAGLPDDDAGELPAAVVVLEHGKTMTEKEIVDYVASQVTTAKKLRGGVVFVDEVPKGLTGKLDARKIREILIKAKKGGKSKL
Inconclusive results are not listed. The source made the active and inactive calls. The call rests on the fitted dose curve; in most records, active means well fitted inhibition curve with a large enough effect in the repeat runs; inconclusive means weak or mixed curves; inactive means flat fitted curve, though single readings scatter.
Labels: t for active, f for inactive

In [3]: df
Out[3]:
                                    compound                               system_name  label_value
 0                                  C=CCCC=C  Luciferin 4-monooxygenase (Photinus pyralis) (UniProt P08659)            f
 1       CCc1cc2cc(OC)c(OC)cc2c(Cc2ccccc2)n1  Luciferin 4-monooxygenase (Photinus pyralis) (UniProt P08659)            f
 2                 Cc1ccc([N+](=O)[O-])cc1Cl  Luciferin 4-monooxygenase (Photinus pyralis) (UniProt P08659)            f
 3  CS(=O)(=O)c1ccc([C@@H](O)[C@@H](CF)NC(=O)C(Cl)Cl)cc1  Luciferin 4-monooxygenase (Photinus pyralis) (UniProt P08659)            f
 4  O=c1[nH]c(=O)n([C@H]2C[C@H](O)[C@@H](CO)O2)cc1C(F)(F)F  Luciferin 4-monooxygenase (Photinus pyralis) (UniProt P08659)            f
 5  CCN(CC)CC1CCCCN1CC(=O)N1c2ccccc2C(=O)Nc2cccnc21 (centres undefined)  Luciferin 4-monooxygenase (Photinus pyralis) (UniProt P08659)            f
 6  O=c1oc2c(O)c(O)cc3c(=O)oc4c(O)c(O)cc1c4c23  Luciferin 4-monooxygenase (Photinus pyralis) (UniProt P08659)            t
 7  Cc1nc(-c2ccccn2)ncc1C(=O)Nn1cc(C)c2cc(F)ccc21  Luciferin 4-monooxygenase (Photinus pyralis) (UniProt P08659)            f
 8          COC(=O)C(C)O (centres undefined)  Luciferin 4-monooxygenase (Photinus pyralis) (UniProt P08659)            f
 9                     CC(C)CC(=O)OCc1ccccc1  Luciferin 4-monooxygenase (Photinus pyralis) (UniProt P08659)            f
10  COc1ccccc1OCC(O)COC(N)=O (centres undefined)  Luciferin 4-monooxygenase (Photinus pyralis) (UniProt P08659)            f
11                 Nc1ccc2ccccc2c1S(=O)(=O)O  Luciferin 4-monooxygenase (Photinus pyralis) (UniProt P08659)            t
12                  C=C(C)C(=O)OCCOP(=O)(O)O  Luciferin 4-monooxygenase (Photinus pyralis) (UniProt P08659)            f
13        CCCC1CCC(=O)O1 (centres undefined)  Luciferin 4-monooxygenase (Photinus pyralis) (UniProt P08659)            f
14                     Nc1cccc(S(=O)(=O)O)c1  Luciferin 4-monooxygenase (Photinus pyralis) (UniProt P08659)            f
15  CC(=O)OC1C2(C)CCC(C2)C1(C)C (centres undefined)  Luciferin 4-monooxygenase (Photinus pyralis) (UniProt P08659)            f
16  CCCN(CCC)C(=O)C(CCC(=O)O)NC(=O)c1ccccc1 (centres undefined)  Luciferin 4-monooxygenase (Photinus pyralis) (UniProt P08659)            f
17                                   CCCOCCC  Luciferin 4-monooxygenase (Photinus pyralis) (UniProt P08659)            f
18  CCCS(=O)c1ccc2nc(NC(=O)OC)[nH]c2c1 (centres undefined)  Luciferin 4-monooxygenase (Photinus pyralis) (UniProt P08659)            f
19  C[C@]12C(=O)OC(=O)[C@H]1[C@H]1C=C[C@@H]2C1  Luciferin 4-monooxygenase (Photinus pyralis) (UniProt P08659)            f
20               CCN(CCCc1ccccc1)CCCc1ccccc1  Luciferin 4-monooxygenase (Photinus pyralis) (UniProt P08659)            f
21             Clc1cccc(-c2cc(Cl)cc(Cl)c2)c1  Luciferin 4-monooxygenase (Photinus pyralis) (UniProt P08659)            f
22  CN1CCC[C@@H]1Cc1c[nH]c2ccc(CCS(=O)(=O)c3ccccc3)cc12  Luciferin 4-monooxygenase (Photinus pyralis) (UniProt P08659)            f
23                                Oc1ccccc1F  Luciferin 4-monooxygenase (Photinus pyralis) (UniProt P08659)            f

----------
target: Cytochrome P450 2D6 (Homo sapiens); test: Cytochrome P450 Family 2 Subfamily D Member 6 (CYP2D6) small molecule antagonists: luciferase reporter qHTS assay (AID 1671196); details: P450-Glo CYP2D6 enzyme assay, luciferin luminescence, 1 h; series mostly up to 115 µM; also: nearly all actives have a fitted effect of over 50% in size
Inconclusive results are not listed. The source made the active and inactive calls. The call rests on the fitted dose curve; in most records, active means well fitted inhibition curve with a large enough effect in the repeat runs; inconclusive means weak or mixed curves; inactive means no such curve, though single readings can be large or run the other way.
Outcome codes: Yes (active), No (inactive)

                                    molecule                         system_name  label_value
 0                    CC1=CC(=O)CC(C)(C)C1=O  Cytochrome P450 2D6 (Homo sapiens)           No
 1                       COC(=O)c1ccc(OC)cc1  Cytochrome P450 2D6 (Homo sapiens)           No
 2                 Cc1ccc([N+](=O)[O-])cc1Cl  Cytochrome P450 2D6 (Homo sapiens)           No
 3  CCN(CC)CC1CCCCN1CC(=O)N1c2ccccc2C(=O)Nc2cccnc21 (centres undefined)  Cytochrome P450 2D6 (Homo sapiens)           No
 4                 CC1(C)C(=O)N(Cl)C(=O)N1Br  Cytochrome P450 2D6 (Homo sapiens)           No
 5                                  CCN(O)CC  Cytochrome P450 2D6 (Homo sapiens)           No
 6     CC1=C(O)C(=O)OC1C (centres undefined)  Cytochrome P450 2D6 (Homo sapiens)           No
 7              C=CC1CO1 (centres undefined)  Cytochrome P450 2D6 (Homo sapiens)           No
 8     Cc1c(C(=O)NCCO)[n+](=O)c2ccccc2n1[O-]  Cytochrome P450 2D6 (Homo sapiens)           No
 9  CC(Oc1c(Cl)cccc1Cl)C1=NCCN1 (centres undefined)  Cytochrome P450 2D6 (Homo sapiens)          Yes
10                                  C=CCCC=C  Cytochrome P450 2D6 (Homo sapiens)           No
11  CCCCCOc1ccc(C2SC(=O)NC2=O)cc1OCC (centres undefined)  Cytochrome P450 2D6 (Homo sapiens)           No
12                               OCc1ccccc1O  Cytochrome P450 2D6 (Homo sapiens)           No
13                              CN1CCN(N)CC1  Cytochrome P450 2D6 (Homo sapiens)           No
14                                CCOC(=O)CS  Cytochrome P450 2D6 (Homo sapiens)           No
15               NCCC(O)(P(=O)(O)O)P(=O)(O)O  Cytochrome P450 2D6 (Homo sapiens)           No
16           NC(=O)Cc1cccc(C(=O)c2ccccc2)c1N  Cytochrome P450 2D6 (Homo sapiens)           No
17  CC1=NN(c2cc(Cl)c(S(=O)(=O)O)cc2Cl)C(=O)C1N=Nc1ccc(S(=O)(=O)O)cc1 (centres undefined)  Cytochrome P450 2D6 (Homo sapiens)           No
18                               N#CSCC(=O)O  Cytochrome P450 2D6 (Homo sapiens)           No

Source of measurements: PubChem BioAssay (Tox21)
